System: CEM cells HIV-1 protection, formazan growth assay
assay_overview: NCI AIDS Antiviral Assay
experimental_conditions: measured here: growth of uninfected CEM cells
// reported log10 IC50 per item
Hey, these are logged values: log10 of IC50, µM being the unit before logging.

1) COc1c(O)cc2oc(-c3ccc(O)cc3)cc(=O)c2c1O: 1.55

Incoming: What does the data say about its log10 IC50? Entry: O=[N+]([O-])C(/C=C(\Cl)[N+](=O)[O-])=C(N1CCOCC1)N1CCOCC1
Outgoing: 2.04

* * *

// reported IC50 per item
Tested on: CEM cells HIV-1 protection, formazan growth assay
assay_overview: NCI AIDS Antiviral Assay
experimental_conditions: measured here: growth of uninfected CEM cells

Known results for compounds:
1. CC1OC(n2cnc3c(=O)[nH]cnc32)C(O)C(O)C1O (stereo not given): > 200 µM
2. COC(=O)Cc1c2n(c3ccccc13)C(=O)N1c3ccccc3C(CC(=O)OC)C21 (stereo not given): > 200 µM
3. O=C(NN1C(=O)C(Cl)C1c1ccccc1Cl)c1ccccc1O (stereo not given): > 14.8 µM

Incoming: What does the data say about its IC50? Entry: CN1C(=O)/C(=C2\SC(=O)N(CN3CCOCC3)C2=O)c2cc(Br)ccc21
Outgoing: 26.3 µM

Incoming: Same question for CC1=C(c2ccc(C)cc2)NC(=S)C(C)C(c2ccc(C)cc2)=N1 (stereo not given) please.
Outgoing: 97.7 µM

Source listed as PubChem BioAssay AID179.
